target: Beta-2 adrenergic receptor (Homo sapiens)
protocol.text: Potency index, ratio of 4-((2S)-3-(((S)-3-(3-bromophenyl)-1-(methylamino)-1-oxopropan-2-yl)amino)-2-(2-cyclohexyl-2-phenylacetamido)-3-oxopropyl)benzamide Imax to test compound Imax for negative allosteric modulation of beta-2 adrenergic receptor (unknown origin) transfected in HEK293 cells assessed as decrease in cAMP accumulation at 50 uM preincubated for 20 mins followed by ISO treatment for 5 mins for by Glo sensor assay
Type: functional, cell-based
conditions: filed as negative allosteric modulator, time 25.0 min
test.readout: Ratio

Please review the following examples before continuing.
CNC(=O)[C@H](Cc1cccc(Br)c1)NC(=O)c1cc(-c2ccc(F)cc2)nn1Cc1cccc(Br)c1 ... 1.3
CNC(=O)[C@H](Cc1cccc(Br)c1)NC(=O)c1cc(-c2ccccc2Br)nn1Cc1cccc(Br)c1 ... 0.91

I. CNC(=O)[C@H](Cc1cccc(Br)c1)NC(=O)c1cc(-c2ccccc2)nn1Cc1ccccc1C#N
II. CNC(=O)[C@H](Cc1cccc(Br)c1)NC(=O)c1cc(-c2ccc(Br)cc2)nn1Cc1cccc(Br)c1
Could you kindly indicate whether I or II has the higher Ratio value? // caller expects the label of the chosen entry
II
